Kindly supply the reported log10 of IC50 values for the records listed here.
- EXPERIMENT DESCRIPTION: Cytotoxicity against human KB-3-1 cells after 96 hrs by MTT assay
- Assay type: functional, cell-based
- MEASUREMENT CONDITIONS: KB 3-1, 96 h
// do not treat as linear: log10 of IC50, unit µM

Q: Reported log10 of IC50, compound COc1cc2c(c3c1c(=O)c1cc4ccccc4nc1n3C)C=CC(C)(C)O2 : ____
Result: 0.57

Q: Same read-out for COc1cc2c(c3c1c(=O)c1cc4ccccc4nc1n3C)[C@@H](OC(C)=O)[C@@H](OC(C)=O)C(C)(C)O2 ?
Result: -0.96

Q: Same read-out for COc1cc2c(c3c1c(=O)c1cc4ccccc4nc1n3C)[C@@H](O)[C@@H](OC(=O)/C=C/c1ccccc1)C(C)(C)O2 (racemic) ?
Result: -1.52

Q: Same read-out for COc1cc2c(c3c1c(=O)c1cc4ccccc4nc1n3C)[C@@H](O)[C@@H](OC(=O)/C=C/c1ccc(C(F)(F)F)cc1)C(C)(C)O2 (racemic) ?
Result: -1.89

Q: Same read-out for COc1cc2c(c3c1c(=O)c1cc4ccccc4nc1n3C)[C@H]1OC(=O)O[C@H]1C(C)(C)O2 (racemic) ?
Result: -1.39

Q: Same read-out for COc1cc2c(c3c1c(=O)c1cc4ccccc4nc1n3C)[C@@H](OC(=O)/C=C/c1ccccc1)[C@@H](OC(=O)/C=C/c1ccccc1)C(C)(C)O2 (racemic) ?
Result: -0.27

Q: Same read-out for COc1c2c(cc3c1c(=O)c1cc4ccccc4nc1n3C)OC(C)(C)[C@H]1OC(=O)O[C@@H]21 (racemic) ?
Result: 1.08

----------
- EXPERIMENT DESCRIPTION: Induction of 117-bp DNA (unknown origin) alkylation incubated for 5 mins to 24 hrs by gel shift assay
Active and inactive are the calls of the source. The rule behind the calls is not given here.
Write down the outcome that applies. Available outcomes: TRUE for active, FALSE for inactive

Q: Write down the call the test reported for this compound. Item: COc1cc2c(c3c1c(=O)c1cc4ccccc4nc1n3C)[C@@H](OC(C)=O)[C@@H](OC(=O)/C=C/c1ccc(C(F)(F)F)cc1)C(C)(C)O2 (racemic)
Result: TRUE

Q: Same read-out for COc1ccc(/C=C/C(=O)O[C@@H]2[C@H](O)c3c(cc(OC)c4c(=O)c5cc6ccccc6nc5n(C)c34)OC2(C)C)cc1 (racemic) ?
Result: TRUE

Q: Same read-out for COc1ccc(/C=C/C(=O)O[C@@H]2[C@H](OC(C)=O)c3c(cc(OC)c4c(=O)c5cc6ccccc6nc5n(C)c34)OC2(C)C)cc1 (racemic) ?
Result: FALSE

Q: Same read-out for COc1cc2c(c3c1c(=O)c1cc4ccccc4nc1n3C)[C@H]1OC(=O)O[C@H]1C(C)(C)O2 (racemic) ?
Result: TRUE

Q: Same read-out for COc1cc2c(c3c1c(=O)c1cc4ccccc4nc1n3C)[C@@H](OC(C)=O)[C@@H](OC(C)=O)C(C)(C)O2 ?
Result: TRUE

Q: Same read-out for COc1cc2c(c3c1c(=O)c1cc4ccccc4nc1n3C)C(OC(C)=O)C(OC(C)=O)C(C)(C)O2 (racemic) ?
Result: TRUE

Q: Same read-out for COc1cc2c(c3c1c(=O)c1cc4ccccc4nc1n3C)[C@H](OC(C)=O)[C@H](OC(C)=O)C(C)(C)O2 ?
Result: TRUE

Q: Same read-out for COc1cc2c(c3c1c(=O)c1cc4ccccc4cc1n3C)[C@@H](OC(C)=O)[C@@H](OC(C)=O)C(C)(C)O2 (racemic) ?
Result: TRUE

Q: Same read-out for COc1c2c(cc3c1c(=O)c1cc4ccccc4nc1n3C)OC(C)(C)[C@H]1OC(=O)O[C@@H]21 (racemic) ?
Result: TRUE

Q: Same read-out for COc1cc2c(c3c1c(=O)c1cc4ccccc4nc1n3C)[C@@H](O)[C@@H](OC(=O)/C=C/c1ccccc1)C(C)(C)O2 (racemic) ?
Result: TRUE

Q: Same read-out for COc1ccc(/C=C/C(=O)O[C@@H]2c3c(cc(OC)c4c(=O)c5cc6ccccc6nc5n(C)c34)OC(C)(C)[C@@H]2OC(=O)/C=C/c2ccc(OC)cc2)cc1 (racemic) ?
Result: TRUE

Q: Same read-out for COc1cc2c(c3c1c(=O)c1cc4ccccc4nc1n3C)[C@@H](O)[C@@H](OC(=O)/C=C/c1ccc(C(F)(F)F)cc1)C(C)(C)O2 (racemic) ?
Result: TRUE

Q: Same read-out for COc1cc2c(c3c1c(=O)c1cc4ccccc4nc1n3C)[C@@H](OC(=O)/C=C/c1ccc(C(F)(F)F)cc1)[C@@H](OC(=O)/C=C/c1ccc(C(F)(F)F)cc1)C(C)(C)O2 (racemic) ?
Result: TRUE

Q: Same read-out for COc1c2c(cc3c1c(=O)c1cc4ccccc4nc1n3C)OC(C)(C)[C@@H](OC(C)=O)[C@H]2OC(C)=O (racemic) ?
Result: FALSE

Q: Same read-out for COc1cc2c(c3c1c(=O)c1cc4ccccc4nc1n3C)[C@@H](OC(C)=O)[C@@H](OC(=O)/C=C/c1ccccc1)C(C)(C)O2 (racemic) ?
Result: TRUE

Hello, the source for this data is ChEMBL document CHEMBL3352761, in case you need it.
